Numbers sourced from patent US20260209316A1.

Measured IC50, microneutralization of GP-pseudotyped lentiviral vector on HEK293 cells, listed per entry.
target: T1, SUDV GP on pseudotyped lentiviral vector (Sudan virus (SUDV), UniProt Q7T9D9 33-676)
T1 sequence: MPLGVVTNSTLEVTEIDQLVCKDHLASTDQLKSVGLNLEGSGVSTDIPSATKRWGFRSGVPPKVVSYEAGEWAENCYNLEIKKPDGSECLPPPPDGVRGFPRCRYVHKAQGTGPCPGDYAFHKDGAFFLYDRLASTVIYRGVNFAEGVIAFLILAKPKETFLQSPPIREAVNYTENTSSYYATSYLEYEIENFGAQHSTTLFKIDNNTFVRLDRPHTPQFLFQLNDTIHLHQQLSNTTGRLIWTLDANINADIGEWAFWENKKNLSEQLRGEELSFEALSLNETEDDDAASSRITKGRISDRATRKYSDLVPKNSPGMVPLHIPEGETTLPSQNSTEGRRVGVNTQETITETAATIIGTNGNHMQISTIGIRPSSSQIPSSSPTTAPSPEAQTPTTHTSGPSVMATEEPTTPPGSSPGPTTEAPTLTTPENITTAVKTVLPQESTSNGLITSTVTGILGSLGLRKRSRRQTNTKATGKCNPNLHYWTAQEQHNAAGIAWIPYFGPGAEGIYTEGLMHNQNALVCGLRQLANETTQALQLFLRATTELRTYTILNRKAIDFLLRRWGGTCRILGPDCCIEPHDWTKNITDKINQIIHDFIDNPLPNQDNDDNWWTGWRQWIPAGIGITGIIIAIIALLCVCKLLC
test: cell-based or functional assay
Write it as a number; the unit µg/mL goes unstated.

Some solved entries appear below for comparison.
1) antibody 315S (antibody, V domains shown) VH: EVQLVESGGGVVQPGRSLRLSCAASGFTFKTYTMHWVRQAPGKGLEWVAVITDDGVNKKYADSVKGRFTISRDNSKNTLYLQMNSLRLEDTAVYYCARSVVVLAAYPLDYWGQGTMVTVSS VL: DIQMTQSPSSLSASVGDRVTITCRASQTISTYLHWYQQRPGKAPKLLIYAASSLQSGVPSRVSGSGSGTDFTLTITSLQPEDFATYYCLQTYSLPLTFGGGTNVEIK ... 0.15
2) antibody 203S (antibody, V domains shown) VH: QVQLVQSGAEVKKPGSSVKVSCKASGGTFSSYAISWVRQAPGQGLEWLGRILPALGLANYAQKYQDRVKITADKSTSTAYMELSRLGSEDTAVYYCARDRWVGAARRGQYFDYWGQGTQVTVSS VL: DIQMTQSPATLSASVGDRVTITCRASQSIGTWLAWYQQKPGKAPKLLIYDASSLESGVPPRFSGSGSETEFTLTISSLQPDDFATYYCHQYKSYSYTFGQGTKLEIK ... 0.04

Ask: Any idea what its IC50, microneutralization of GP-pseudotyped lentiviral vector on HEK293 cells is? The binder is antibody 335S (antibody, V domains shown) VH: EVQLVESGGGVVQPGRSLRLSCAASGFSFSNYAMHWVRQAPGKGLEWVAVTWYDGSSKYHADSVKGRFTISRDNSKNTLYLQMNSLRAEDTAVYYCARWGMGIVASPGNVLNYYYFMDVWGQGTTVIVSS VL: SYELTQPPSVSVSPGQTARITCSGNPLPKKHTYWYQQKPGQAPVLMIYKDSERPSRIPERFSGSSSGTTVTLTISGVQAEDEADYYCQSADSTGIVVFGGGTKLTVL
Result: 0.63
